Biological target: Adenosine receptor A2b (Homo sapiens)
Sequence (whole entry): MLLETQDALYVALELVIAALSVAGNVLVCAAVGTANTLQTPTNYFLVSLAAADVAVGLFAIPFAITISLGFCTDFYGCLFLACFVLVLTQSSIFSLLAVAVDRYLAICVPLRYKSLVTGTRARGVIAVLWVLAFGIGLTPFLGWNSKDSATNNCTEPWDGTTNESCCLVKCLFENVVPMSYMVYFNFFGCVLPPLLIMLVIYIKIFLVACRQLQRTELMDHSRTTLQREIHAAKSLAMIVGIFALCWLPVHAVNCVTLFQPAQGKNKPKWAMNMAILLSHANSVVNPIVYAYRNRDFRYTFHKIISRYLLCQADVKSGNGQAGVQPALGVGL
Test: Antagonist activity at human adenosine A2B receptor assessed as inhibition of NECA-induced cAMP accumulation in CHO membrane at 10 uM
Set-up: scale not given: the % may be the effect or the level left
assay_readout: Activity (%)
Expressed in %, but write only the number.

{"smiles_representation": "Clc1ccc(Nc2nc3ccccc3c3[nH]c(C4CCCCCC4)nc23)cc1Cl", "assay_readout": "Activity", "quantitative_result": -7.3}

Query: # value lookup — system Adenosine receptor A2b (Homo sapiens), readout Activity, item OCc1cccc(Nc2[nH]c3ccccc3c3nc(C4CCCC4)nc2-3)c1
Reply: -4.1

Query: Find the measured Activity: item c1ccc(CNc2[nH]c3ccccc3c3nc(C4CCCC4)nc2-3)cc1 , target or system Adenosine receptor A2b (Homo sapiens).
Reply: -3.4

###

biological target: UniProt:P0DMS8; test: Increase of efficacy at human adenosine A3 receptor in CHO cells at 10 uM relative to 2-Cl-IB-MECA
assay_readout: Activity (%)
Write the value in % as a bare number.

Before answering, review these 6 worked examples.
{"smiles_representation": "c1ccc2c3nc(C4CCCC4)nc-3c(Nc3ccc4c[nH]nc4c3)[nH]c2c1", "Activity, %": 96}
{"smiles_representation": "Clc1ccc(Nc2nc3ccccc3c3[nH]c(C4CCCC4)nc23)cc1Cl", "Activity, %": 141}
{"smiles_representation": "COc1ccc(CNc2[nH]c3ccccc3c3nc(C4CCCC4)nc2-3)cc1", "Activity, %": 109}
{"smiles_representation": "Clc1ccc(Nc2nc3ccccc3c3[nH]c(C4CCCC4)nc23)cc1", "Activity, %": 136}
{"smiles_representation": "CCCCCc1nc2c(Nc3ccc(Cl)c(Cl)c3)[nH]c3ccccc3c-2n1", "Activity, %": 102}
{"smiles_representation": "c1ccc(CNc2[nH]c3ccccc3c3nc(C4CCCC4)nc2-3)cc1", "Activity, %": 147}

Query: Query for UniProt:P0DMS8: what Activity does the record show for Clc1ccc(Nc2[nH]c3ccccc3c3ncnc2-3)cc1Cl ?
Reply: 92

Query: Observed Activity on UniProt:P0DMS8 for Clc1ccc(Nc2nc3ccccc3c3[nH]c(C4CCC4)nc23)cc1Cl , please.
Reply: 126

###

Let's look at some compounds and their measured Activity.
target: Adenosine receptor A2b (Homo sapiens) (UniProt P29275); test: Antagonist activity at human adenosine A2B receptor assessed as inhibition of NECA-induced cAMP accumulation in CHO membrane at 10 uM; set-up: scale not given: the % may be the effect or the level left
Enter your answer as a number in %; do not include the unit.

# example entries with known answers
{"smiles_representation": "c1ccc2c3nc(C4CCCC4)nc-3c(Nc3ccc4c[nH]nc4c3)[nH]c2c1", "quantitative_result": 5}
{"smiles_representation": "c1ccc(Nc2nc3ccccc3c3[nH]c(C4CCCC4)nc23)cc1", "quantitative_result": -6.8}
{"smiles_representation": "Clc1ccc(Nc2[nH]c3ccccc3c3nc(-c4ccco4)nc2-3)cc1Cl", "quantitative_result": 9}
{"smiles_representation": "c1ccc2c3nc(C4CCCC4)nc-3c(Nc3ccc4cc[nH]c4c3)[nH]c2c1", "quantitative_result": 10.1}
{"smiles_representation": "Clc1ccc(Nc2nc3ccccc3c3[nH]c(C4CCC4)nc23)cc1Cl", "quantitative_result": -5.5}

Query: # query: Activity of entry Clc1ccc(Nc2[nH]c3ccccc3c3ncnc2-3)cc1Cl
Reply: 10.2

Query: GET /values?readout=Activity&item= Clc1ccc(Nc2nc3ccccc3c3nc(C4CCCCC4)[nH]c23)cc1Cl
Reply: -5.6

Query: # input compound: c1ccc(CCNc2[nH]c3ccccc3c3nc(C4CCCC4)nc2-3)cc1 ; wanted: its Activity
Reply: -11.6

###

Documented Activity across a set of compounds
Target: Adenosine receptor A3 (Homo sapiens) (UniProt P0DMS8)
Sequence (whole entry): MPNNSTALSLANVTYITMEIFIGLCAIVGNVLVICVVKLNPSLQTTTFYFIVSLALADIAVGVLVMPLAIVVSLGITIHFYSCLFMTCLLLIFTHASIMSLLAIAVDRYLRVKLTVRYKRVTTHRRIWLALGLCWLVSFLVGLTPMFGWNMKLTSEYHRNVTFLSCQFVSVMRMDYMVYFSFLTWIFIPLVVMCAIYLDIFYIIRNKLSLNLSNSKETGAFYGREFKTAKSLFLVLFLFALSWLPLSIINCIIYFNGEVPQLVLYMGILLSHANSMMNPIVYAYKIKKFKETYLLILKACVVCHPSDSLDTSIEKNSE
Assay: Displacement of [125I]I-AB-MECA from human adenosine A3 receptor in CHO membrane at 10 uM
Type: cell membranes
Express it in %; write the number only.

{"smiles_representation": "c1ccc2c3nc(C4CCCC4)nc-3c(Nc3ccc4cc[nH]c4c3)[nH]c2c1", "assay_readout": "Activity", "quantitative_result": 89}
{"smiles_representation": "COc1ccc(CNc2[nH]c3ccccc3c3nc(C4CCCC4)nc2-3)cc1", "assay_readout": "Activity", "quantitative_result": 80}
{"smiles_representation": "c1ccc(Nc2nc3ccccc3c3[nH]c(C4CCCC4)nc23)cc1", "assay_readout": "Activity", "quantitative_result": 90}
{"smiles_representation": "Clc1ccc(Nc2nc3ccccc3c3[nH]c(C4CCCC4)nc23)cc1", "assay_readout": "Activity", "quantitative_result": 82}
{"smiles_representation": "CCCCCc1nc2c(Nc3ccc(Cl)c(Cl)c3)[nH]c3ccccc3c-2n1", "assay_readout": "Activity", "quantitative_result": 84}
{"smiles_representation": "c1ccc2c3nc(C4CCCC4)nc-3c(Nc3ccc4c(c3)CCC4)[nH]c2c1", "assay_readout": "Activity", "quantitative_result": 69}
{"smiles_representation": "Clc1ccc(Nc2nc3ccccc3c3[nH]c(C4CCCCCC4)nc23)cc1Cl", "assay_readout": "Activity", "quantitative_result": 68}
{"smiles_representation": "Clc1ccc(Nc2nc3ccccc3c3[nH]c(C4CCCC4)nc23)cc1Cl", "assay_readout": "Activity", "quantitative_result": 67}

Query: Fill in the recorded Activity for this compound, with Adenosine receptor A3 (Homo sapiens) (UniProt P0DMS8) as test system: c1ccc(CCNc2[nH]c3ccccc3c3nc(C4CCCC4)nc2-3)cc1
Reply: 84

Query: I'm curious: which Activity was measured for c1ccc2c3nc(C4CCCC4)nc-3c(Nc3ccc4c[nH]nc4c3)[nH]c2c1 tested on Adenosine receptor A3 (Homo sapiens) (UniProt P0DMS8)?
Reply: 67

###

molecular target: Adenosine receptor A3 (Homo sapiens); test: Displacement of [125I]I-AB-MECA from human adenosine A3 receptor in CHO membrane at 10 uM; assay type: cell membranes
assay_readout: Activity (%)
Give just the number in %; leave the unit off.

{"smiles_representation": "Cc1ccc(Nc2nc3ccccc3c3[nH]c(C4CCCC4)nc23)cc1", "readout_units": "%", "Activity": 87}
{"smiles_representation": "Clc1ccc(Nc2nc3ccccc3c3nc(C4CCCCC4)[nH]c23)cc1Cl", "readout_units": "%", "Activity": 45}
{"smiles_representation": "OCc1cccc(Nc2[nH]c3ccccc3c3nc(C4CCCC4)nc2-3)c1", "readout_units": "%", "Activity": 56}

Note: attention shifts to another entry.
Query: Form field: Activity recorded for COc1ccc(Nc2nc3ccccc3c3nc(C4CCCC4)[nH]c23)cc1 with Adenosine receptor A3 (Homo sapiens) (enter value)
Reply: 92

###

target: Adenosine receptor A3 (Homo sapiens); test: Decrease in dissociation of [125I]I-AB-MECA from human adenosine A3 receptor in CHO membrane at 10 uM relative to control after 30 min; type: cell membranes; design: scale not given: the % may be the effect or the level left
assay_readout: Activity (%)
Hi! Could you send only the number? It should be in %, unit omitted.

Below, each entry is followed by its recorded Activity result.
{"smiles_representation": "c1ccc2c3nc(C4CCCC4)nc-3c(Nc3ccc4c[nH]nc4c3)[nH]c2c1", "assayed_system": "Adenosine receptor A3 (Homo sapiens)", "Activity [%]": 109}
{"smiles_representation": "c1ccc(Nc2nc3ccccc3c3[nH]c(C4CCCC4)nc23)cc1", "assayed_system": "Adenosine receptor A3 (Homo sapiens)", "Activity [%]": 174}
{"smiles_representation": "COc1ccc(Nc2nc3ccccc3c3nc(C4CCCC4)[nH]c23)cc1", "assayed_system": "Adenosine receptor A3 (Homo sapiens)", "Activity [%]": 166}
{"smiles_representation": "Clc1ccc(Nc2nc3ccccc3c3[nH]c(C4CCCC4)nc23)cc1Cl", "assayed_system": "Adenosine receptor A3 (Homo sapiens)", "Activity [%]": 144}
{"smiles_representation": "Clc1ccc(Nc2nc3ccccc3c3nc(C4CCCCC4)[nH]c23)cc1Cl", "assayed_system": "Adenosine receptor A3 (Homo sapiens)", "Activity [%]": 173}
{"smiles_representation": "Clc1ccc(Nc2nc3ccccc3c3[nH]c(C4CCCC4)nc23)cc1", "assayed_system": "Adenosine receptor A3 (Homo sapiens)", "Activity [%]": 159}
{"smiles_representation": "c1ccc(CCNc2[nH]c3ccccc3c3nc(C4CCCC4)nc2-3)cc1", "assayed_system": "Adenosine receptor A3 (Homo sapiens)", "Activity [%]": 154}
{"smiles_representation": "COc1ccc(CNc2[nH]c3ccccc3c3nc(C4CCCC4)nc2-3)cc1", "assayed_system": "Adenosine receptor A3 (Homo sapiens)", "Activity [%]": 101}
{"smiles_representation": "Clc1ccc(Nc2[nH]c3ccccc3c3nc(-c4ccco4)nc2-3)cc1Cl", "assayed_system": "Adenosine receptor A3 (Homo sapiens)", "Activity [%]": 98}
{"smiles_representation": "Clc1ccc(Nc2[nH]c3ccccc3c3ncnc2-3)cc1Cl", "assayed_system": "Adenosine receptor A3 (Homo sapiens)", "Activity [%]": 91}

Query: Would you kindly share the measured Activity for c1ccc(CNc2[nH]c3ccccc3c3nc(C4CCCC4)nc2-3)cc1 ?
Reply: 145

Query: Bench note: what Activity did Cc1ccc(Nc2nc3ccccc3c3[nH]c(C4CCCC4)nc23)cc1 show?
Reply: 153

Query: If you can, please state the reported Activity value of OCc1cccc(Nc2[nH]c3ccccc3c3nc(C4CCCC4)nc2-3)c1 .
Reply: 129

Query: For Clc1ccc(Nc2nc3ccccc3c3[nH]c(C4CCCCCC4)nc23)cc1Cl , what is its reported Activity?
Reply: 130

Query: GET /values?readout=Activity&item= CCCCCc1nc2c(Nc3ccc(Cl)c(Cl)c3)[nH]c3ccccc3c-2n1
Reply: 116

Query: Activity for c1ccc2c3nc(C4CCCC4)nc-3c(Nc3ccc4c(c3)CCC4)[nH]c2c1 ?
Reply: 108

Query: # query: Activity of entry c1ccc2c3nc(C4CCCC4)nc-3c(Nc3ccc4cc[nH]c4c3)[nH]c2c1
Reply: 126

Recorded values, source ChEMBL document CHEMBL1148506.
